test system: HEK-293T; test: Multiplex assay against HEK293T; format: toxicity, cell-based; details: human, 12 h, 1 µM, compound concentration 1 uM, replicate 1
Rule: Population Mitochondria Different-Phenotype (%) under 40% gives not fulfilled, otherwise fulfilled.

Study these solved cases before continuing.
CC(C)c1noc(N2CCC(COc3ccc(-c4ccc(S(C)(=O)=O)cc4)nc3)CC2)n1 [GSK-1292263] ... fulfilled
CCCCC(=O)N(Cc1ccc(-c2ccccc2-c2nnn[nH]2)cc1)[C@H](C(=O)O)C(C)C ... not fulfilled
N#Cc1c(Oc2cccc(OS(=O)(=O)CCCC(F)(F)F)c2)cccc1C(F)(F)F ... fulfilled
CN(C)C(=O)Cn1cc(-c2ccc(-c3cncc4ccccc34)cc2)cn1 ... fulfilled

# next compound below
Task: Please check the record O=C(CCCc1ccccc1)Nc1nc2ccccc2c(=O)s1 and state if its Population Mitochondria Different-Phenotype (%) is at or above 40%.
Output: not fulfilled
